Source of measurements: ChEMBL document CHEMBL3603820

EXPERIMENTAL PROTOCOL: Tmax in C57BL/6 mouse plasma at 1.81 mg/kg, po
Assay type: ADME, organism-based
REPORTED METRIC: Tmax (h)

> print(dat)
                                  structure  measured.number
1  N#Cc1cccc(COc2ccc3c(c2)CN2C(=O)CN(C4CCCC4)C(=O)[C@H]2C3)c1                1

* * *

EXPERIMENTAL PROTOCOL: AUC (0 to t) in C57BL/6 mouse brain at 1.81 mg/kg, po
Format: ADME, organism-based
REPORTED METRIC: AUC(0-t) (ng·h/mL)

> print(dat)
                                  structure  reported.metric  measured.number
1  N#Cc1cccc(COc2ccc3c(c2)CN2C(=O)CN(C4CCCC4)C(=O)[C@H]2C3)c1         AUC(0-t)              280
